Reported apparent KD of MS2 coat protein values for a set of sequences
Test system: MS2 coat protein
Test: apparent KD of MS2 coat protein; designed switch direction (-1 OFF switch, 1 ON switch): 1; higher = weaker reporter binding
Details: input ligand: none
Just so you know, I need the unit written after the number.

Known results for sequences:
- Sequence Data: "AUUUUUAAUGCAGGAUAUGAUUAACAUGAGGAUCACCCAUGUGGUGUUGUGAGUAAGGAGAGUGAUCAGAAGGGCAUCUUUUUU [JMF's solution 81] (Eterna round: R96, puzzle: Same State NG 2)"
  apparent KD of MS2 coat protein: "490 nM"
- Sequence Data: "GGUAGGUUACUACCAAACAUGAGGAUCACCCAUGUAAGUGGGAAGGAUAUGGUACCUUUUAGGUACCAGAAGGUCCAUAUAGUA [JL Fiskers NG3ss - 2 mod 10] (Eterna round: R96, puzzle: Same State NG 3)"
  apparent KD of MS2 coat protein: "1000 nM"
- Sequence Data: "AUAAAUAACACAGGAUAUCCGCACGGGUAGUGCGGAGAAGGGUGAACGUCGGCUCUCGCCAACAUGAGGAUCACCCAUGUAAAG [Letiusle] (Eterna round: R96, puzzle: Same State NG 1)"
  apparent KD of MS2 coat protein: "41.1 nM"

Q) Supply reported apparent KD of MS2 coat protein belonging to this sequence: AUUACUAACAUAGGAUAUCAUGCGAAAAUUGCGUGAGAAGGGUGGACACUGUCAUUCUCGGAGCACAUGAGGAUCACCCAUGUG [SameState NG1 #70] (Eterna round: R96, puzzle: Same State NG 1)
A) 59 nM

Q) Could you please provide reported apparent KD of MS2 coat protein for GCCAUCGAGUGAGGAUAUGGCACCGAAACGGUGCCAGAAGGCAUGUCAAUUGACAUGAGGAUCACCCAUGUAUUAUCGAUGGCA [Mat - Same State NG 1 - JL mod - D87] (Eterna round: R96, puzzle: Same State NG 1) ? Thanks!
A) 1690 nM

Q) Supply measured apparent KD of MS2 coat protein of GAGCCAGUCCGAGGAUAUUCGUAUUAACACAUGAGGAUCACCCAUGUGGGCUCAGAAGAGCCCUGGGAGAAGGCGGGCUGGCUC [SS-NG2-LRO17] (Eterna round: R96, puzzle: Same State NG 2) in your reply.
A) 48.4 nM

Q) Give me measured apparent KD of MS2 coat protein, please, for this sequence: GGUGCCAAAUAAGCCUACAUGAGGAUCACCCAUGUAUGUAGGCAGGAUAUCGUAUGCAAAGCAUACGAGAAGGGCCUAGGCACC [Mat - Same State NG 3 - JL Mod - D63] (Eterna round: R96, puzzle: Same State NG 3)
A) 41.3 nM

Q) Entry UUAAUAAUGAUAGGAUAUACAUGAGGAAUUCUCGUAGAAGGAUCAUGACAUGAGGAUCACCCAUGUAUCGCUCGAUAGAGCGUA [Mat - Same State NG 1 - JL mod - D35] (Eterna round: R96, puzzle: Same State NG 1) needs its apparent KD of MS2 coat protein filled in; supply it.
A) 326 nM

Q) Please supply the value of reported apparent KD of MS2 coat protein for the item AUUAUUUAUGCAGGAUAUGAUUAACAUGAGGAUCACCCAUGUGGUGUUGUGAGUAAGGAGAGUGAUCAGAAGGGCAUUUUUUGU [JMF's solution 54] (Eterna round: R96, puzzle: Same State NG 2)
A) 464 nM

Q) # return recorded apparent KD of MS2 coat protein for entry UUUCGAUAGAUAGGAUAUCACUUUACAUGAGGAUCACCCAUGUUGGCUGUGCUGAUUAUUAAAACUGAGAAGGAUCUUGAUGAC [JR_SSNG2_Sub003] (Eterna round: R96, puzzle: Same State NG 2)
A) 23.5 nM

This collection of values is drawn from the supplement of paper PMC9170038.
